Molecular target: human EGFR (L858R/C797S) (Homo sapiens, UniProt P00533, C797S/L858R)
Construct: purchased SignalChem
Sequence (P00533 25-1210 C797S/L858R): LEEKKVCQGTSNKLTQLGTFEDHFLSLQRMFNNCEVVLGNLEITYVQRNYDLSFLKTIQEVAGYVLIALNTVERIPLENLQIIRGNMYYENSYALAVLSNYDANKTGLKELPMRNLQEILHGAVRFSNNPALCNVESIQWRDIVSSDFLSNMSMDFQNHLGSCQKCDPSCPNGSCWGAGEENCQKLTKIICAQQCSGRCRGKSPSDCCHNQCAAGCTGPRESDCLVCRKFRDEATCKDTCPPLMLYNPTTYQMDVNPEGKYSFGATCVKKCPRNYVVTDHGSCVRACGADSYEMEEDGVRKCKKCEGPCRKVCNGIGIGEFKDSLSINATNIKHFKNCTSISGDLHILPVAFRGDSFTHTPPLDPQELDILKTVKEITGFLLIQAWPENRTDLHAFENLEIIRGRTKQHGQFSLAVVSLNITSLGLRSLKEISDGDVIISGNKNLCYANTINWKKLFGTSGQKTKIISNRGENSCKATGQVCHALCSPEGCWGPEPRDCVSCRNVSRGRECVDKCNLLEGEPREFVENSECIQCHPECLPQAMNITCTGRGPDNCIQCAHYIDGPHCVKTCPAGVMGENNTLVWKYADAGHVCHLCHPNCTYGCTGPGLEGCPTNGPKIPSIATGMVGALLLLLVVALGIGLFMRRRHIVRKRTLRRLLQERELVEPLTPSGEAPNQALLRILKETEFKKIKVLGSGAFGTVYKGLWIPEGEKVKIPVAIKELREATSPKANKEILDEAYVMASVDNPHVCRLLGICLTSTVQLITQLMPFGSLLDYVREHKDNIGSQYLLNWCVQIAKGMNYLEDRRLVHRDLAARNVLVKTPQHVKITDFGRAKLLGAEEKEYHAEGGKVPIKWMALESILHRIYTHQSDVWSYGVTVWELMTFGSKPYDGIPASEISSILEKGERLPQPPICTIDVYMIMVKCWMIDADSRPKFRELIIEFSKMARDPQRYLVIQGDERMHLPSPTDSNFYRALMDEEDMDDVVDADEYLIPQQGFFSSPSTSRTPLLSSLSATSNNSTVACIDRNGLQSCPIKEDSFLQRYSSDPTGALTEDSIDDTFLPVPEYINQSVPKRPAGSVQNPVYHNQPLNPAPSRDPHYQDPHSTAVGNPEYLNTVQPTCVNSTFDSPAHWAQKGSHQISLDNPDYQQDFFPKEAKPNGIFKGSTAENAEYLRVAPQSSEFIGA
Assay: Inhibitory activity against EGFR (L858R/C797S) kinase
Type: biochemical
Conditions: Test Example 1, Table 5; ATP 4 μM, 90 minutes
reported-property: pIC50
Answers are plain numbers, as −log10 of the molar value.

These recorded examples may help you get a feel for the data.
- molecule: "C#Cc1c(-c2cnc3ccccc3c2)c2c(N)ncnc2n1C12CCC(NC(=O)NCC)(CC1)C2 [Example 50]"
  pIC50: 8.70
- molecule: "C#Cc1c(-c2cnc3ccccc3c2)c2c(N)ncnc2n1C12CCC(NC(=O)c3cnc(N(C)C)cn3)(CC1)C2 [Example 32]"
  pIC50: 9.11
- molecule: "C#Cc1c(-c2cnc3ccccc3c2)c2c(N)ncnc2n1C12CCC(N(C)C(=O)c3cnc(C)cn3)(CC1)C2 [Example 57]"
  pIC50: 8.36

# context switch: different molecule, same pIC50
GET pIC50 | system: human EGFR (L858R/C797S) (Homo sapiens, UniProt P00533, C797S/L858R) | item: C#Cc1c(-c2cnc3ccccc3c2)c2c(N)ncnc2n1C12CCC(NC(=O)c3cnccn3)(CC1)C2 [Example 48]
9.22

---

Give measured IC50 for each item. Keep answers brief.
Biological target: human EGFR (d746-750/C797S) (Homo sapiens, UniProt P00533, C797S/DEL746-750)
Construct: purchased SignalChem
Sequence (P00533 with tags, fused parts or gaps DEL746-750/C797S): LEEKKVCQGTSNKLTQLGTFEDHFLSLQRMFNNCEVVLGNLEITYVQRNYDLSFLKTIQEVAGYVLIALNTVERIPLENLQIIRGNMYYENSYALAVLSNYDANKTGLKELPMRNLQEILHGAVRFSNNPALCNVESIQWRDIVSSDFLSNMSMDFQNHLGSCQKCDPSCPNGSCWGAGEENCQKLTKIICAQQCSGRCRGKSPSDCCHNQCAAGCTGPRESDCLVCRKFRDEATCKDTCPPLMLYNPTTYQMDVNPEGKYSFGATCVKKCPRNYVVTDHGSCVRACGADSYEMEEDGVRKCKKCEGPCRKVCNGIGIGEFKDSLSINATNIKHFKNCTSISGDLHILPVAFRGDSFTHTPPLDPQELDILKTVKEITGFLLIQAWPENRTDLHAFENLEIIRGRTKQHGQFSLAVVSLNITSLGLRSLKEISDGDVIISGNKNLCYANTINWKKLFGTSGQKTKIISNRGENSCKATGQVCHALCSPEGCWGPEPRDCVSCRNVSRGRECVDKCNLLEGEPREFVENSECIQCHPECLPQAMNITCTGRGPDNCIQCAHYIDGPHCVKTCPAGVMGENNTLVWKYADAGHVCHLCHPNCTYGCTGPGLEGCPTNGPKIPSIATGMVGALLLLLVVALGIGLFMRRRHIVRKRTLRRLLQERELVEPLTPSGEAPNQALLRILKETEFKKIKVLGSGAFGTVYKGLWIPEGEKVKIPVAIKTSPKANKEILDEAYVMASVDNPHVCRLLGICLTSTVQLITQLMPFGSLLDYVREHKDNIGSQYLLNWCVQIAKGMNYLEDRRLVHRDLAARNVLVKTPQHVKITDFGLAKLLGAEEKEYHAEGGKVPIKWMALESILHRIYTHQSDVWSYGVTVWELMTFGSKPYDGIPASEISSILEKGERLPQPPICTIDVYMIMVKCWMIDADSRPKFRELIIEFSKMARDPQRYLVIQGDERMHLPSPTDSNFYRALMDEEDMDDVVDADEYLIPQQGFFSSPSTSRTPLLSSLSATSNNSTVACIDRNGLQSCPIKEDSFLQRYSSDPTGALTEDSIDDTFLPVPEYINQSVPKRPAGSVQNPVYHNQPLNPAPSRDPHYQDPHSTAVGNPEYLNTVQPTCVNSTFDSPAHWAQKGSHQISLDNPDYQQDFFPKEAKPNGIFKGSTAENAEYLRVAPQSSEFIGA
Test: Inhibitory activity against EGFR (d746-750/C797S) kinase
Format: biochemical
Details: Test Example 1, Table 4; ATP 14 μM, 60 minutes

These recorded examples may help you get a feel for the data.
- compound: "C#Cc1c(-c2cnc3ccccc3c2)c2c(N)ncnc2n1C12CCC(NC(=O)c3nccnn3)(CC1)C2"
  IC50: "< 0.3 nM"
- compound: "C#Cc1c(-c2cnc3ccccc3c2)c2c(N)ncnc2n1C12CCC(NC(=O)c3ccno3)(CC1)C2"
  IC50: "0.73 nM"

Hi team, please reply with IC50 for each item in this list.
1. C#Cc1c(-c2cnc3ccccc3c2)c2c(N)ncnc2n1C12CCC(NC(=O)c3cnc(C)cn3)(CC1)C2
2. C#Cc1c(-c2cnc3ccccc3c2)c2c(N)ncnc2n1C12CCC(NC(=O)c3ccncc3)(CC1)C2
3. C#Cc1c(-c2cnc3ccccc3c2)c2c(N)ncnc2n1C12CCC(NC(=O)c3cncc(F)c3)(CC1)C2
4. C=CC(=O)N1CC[C@@H](n2cc(-c3cnc4ccccc4c3)c3c(N)ncnc32)C1 [Comparative Example A, reference compound]
5. C#Cc1c(-c2cnc3ccccc3c2)c2c(N)ncnc2n1C12CCC(NC(=O)c3cnnn3C)(CC1)C2

0.5 nM
0.73 nM
0.55 nM
264 nM
< 0.3 nM

---

Molecular target: Ba/F3-EGFR (WT) (Homo sapiens)
Sequence (P00533 whole entry, change not shown): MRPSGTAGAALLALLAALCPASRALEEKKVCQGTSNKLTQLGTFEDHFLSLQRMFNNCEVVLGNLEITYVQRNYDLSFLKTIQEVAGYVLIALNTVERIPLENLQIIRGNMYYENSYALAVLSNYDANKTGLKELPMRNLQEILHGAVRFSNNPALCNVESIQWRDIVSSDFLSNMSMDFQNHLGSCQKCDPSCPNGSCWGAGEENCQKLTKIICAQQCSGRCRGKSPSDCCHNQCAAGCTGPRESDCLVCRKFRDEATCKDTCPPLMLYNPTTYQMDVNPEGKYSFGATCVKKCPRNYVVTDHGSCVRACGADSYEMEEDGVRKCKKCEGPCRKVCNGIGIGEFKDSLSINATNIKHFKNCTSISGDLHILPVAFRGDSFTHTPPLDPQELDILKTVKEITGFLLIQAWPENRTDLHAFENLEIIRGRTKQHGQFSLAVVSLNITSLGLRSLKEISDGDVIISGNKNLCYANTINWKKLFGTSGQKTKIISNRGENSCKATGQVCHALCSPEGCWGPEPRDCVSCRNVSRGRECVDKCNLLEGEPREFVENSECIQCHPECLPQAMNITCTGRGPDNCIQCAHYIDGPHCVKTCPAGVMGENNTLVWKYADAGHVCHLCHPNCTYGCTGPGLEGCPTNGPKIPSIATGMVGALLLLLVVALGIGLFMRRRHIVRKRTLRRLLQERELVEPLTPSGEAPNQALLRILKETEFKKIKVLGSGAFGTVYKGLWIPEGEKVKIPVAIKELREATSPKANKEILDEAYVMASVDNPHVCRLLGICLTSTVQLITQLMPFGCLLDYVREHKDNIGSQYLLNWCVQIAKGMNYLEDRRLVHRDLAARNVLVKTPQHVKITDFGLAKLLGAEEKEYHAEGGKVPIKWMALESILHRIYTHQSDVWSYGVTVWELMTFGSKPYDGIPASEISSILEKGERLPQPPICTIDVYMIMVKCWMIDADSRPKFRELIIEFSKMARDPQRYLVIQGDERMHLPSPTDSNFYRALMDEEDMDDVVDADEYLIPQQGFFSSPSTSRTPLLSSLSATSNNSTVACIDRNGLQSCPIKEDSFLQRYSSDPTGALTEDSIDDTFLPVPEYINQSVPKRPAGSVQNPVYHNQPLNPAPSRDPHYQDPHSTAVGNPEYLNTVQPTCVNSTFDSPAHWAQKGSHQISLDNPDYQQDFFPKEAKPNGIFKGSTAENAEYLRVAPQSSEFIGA
Test: Growth inhibition of cell line expressing wild-type EGFR
Type: cell-based, mouse
Conditions: Test Example 4, Table 13; same procedures as Test Example 2; read-out: BaF3_EGFR (WT) IC50 value
Experimental: Test for inhibitory activity against the growth of cell lines expressing wild-type and mutated EGFRs (in vitro) […] In each cell line, the rate of cell growth inhibition was calculated according to the equation shown below in wells to which each test compound was added at different concentrations. […]
reported-property: GI50

These recorded examples may help you get a feel for the data.
- compound: "C#Cc1c(-c2cnc3ccccc3c2)c2c(N)ncnc2n1C12CCC(NC(=O)c3noc(C)n3)(CC1)C2 [Example 36]"
  obs-value: "> 2 µM"
- compound: "C#Cc1c(-c2cnc3ccccc3c2)c2c(N)ncnc2n1C12CCC(NC(=O)c3ccccc3)(CC1)C2 [Example 1]"
  obs-value: "3.49 µM"
- compound: "C#Cc1c(-c2cnc3ccccc3c2)c2c(N)ncnc2n1C12CCC(N3CCOCC3)(CC1)C2 [Example 9]"
  obs-value: "> 2 µM"
- compound: "C#Cc1c(-c2cnc3ccccc3c2)c2c(N)ncnc2n1C12CCC(NC(C)=O)(CC1)C2 [Example 39]"
  obs-value: "2.36 µM"
- compound: "C#Cc1c(-c2cnc3ccccc3c2)c2c(N)ncnc2n1C12CCC(NC(=O)c3ccnn3C3CC3)(CC1)C2 [Example 20]"
  obs-value: "2.65 µM"
- compound: "C#Cc1c(-c2cnc3ccccc3c2)c2c(N)ncnc2n1C12CCC(NC(=O)c3ccc4ncnn4c3)(CC1)C2 [Example 16]"
  obs-value: "1.92 µM"
- compound: "C#Cc1c(-c2cnc3ccccc3c2)c2c(N)ncnc2n1C12CCC(NC(=O)c3cnco3)(CC1)C2 [Example 47]"
  obs-value: "2.06 µM"

# context switch: different compound, same GI50
Name the recorded GI50 of the item C#Cc1c(-c2cnc3ccccc3c2)c2c(N)ncnc2n1C12CCC(NC(=O)C(F)F)(CC1)C2 [Example 27] in your answer.
> 2 µM

---

Biological target: human EGFR (d746-750/C797S) (Homo sapiens, UniProt P00533, C797S/DEL746-750)
Construct: purchased SignalChem
Assay: Inhibitory activity against EGFR (d746-750/C797S) kinase
Assay type: biochemical
Settings: Test Example 1, Table 4; ATP 14 μM, 60 minutes
Give measured IC50 for each item. Keep answers brief.
Give bare numbers, in nM.

- compound-string: "C#Cc1c(-c2cnc3ccccc3c2)c2c(N)ncnc2n1C12CCC(N(C)C(=O)c3cnc(C)cn3)(CC1)C2"
  IC50, nM: 2.5
- compound-string: "C#Cc1c(-c2cnc3ccccc3c2)c2c(N)ncnc2n1C12CCC(CNC(=O)c3cnc(C)cn3)(CC1)C2"
  IC50, nM: 0.79
- compound-string: "C#Cc1c(-c2cnc3ccccc3c2)c2c(N)ncnc2n1C12CCC(NC(=O)c3cccnc3)(CC1)C2"
  IC50, nM: 0.67

GET IC50 | system: human EGFR (d746-750/C797S) (Homo sapiens, UniProt P00533, C797S/DEL746-750) | item: C#Cc1c(-c2cnc3ccccc3c2)c2c(N)ncnc2n1C12CCC(NC(=S)N3CC4(CN(C)C4)C3)(CC1)CC2
0.84

---

Target: human EGFR (d746-750/C797S) (Homo sapiens, UniProt P00533, C797S/DEL746-750)
Construct: purchased SignalChem
Assay: Inhibitory activity against EGFR (d746-750/C797S) kinase
Type: biochemical
Details: Test Example 3, Table 10; same procedures as 3) in Test Example 1
reported-property: pIC50
Give bare numbers, as −log10 of the molar value.

These recorded examples may help you get a feel for the data.
- compound-string: "C#Cc1c(-c2cnc3ccccc3c2)c2c(N)ncnc2n1C12CCC(NC(=O)c3cnc4cnccn34)(CC1)C2"
  pIC50: 9.40
- compound-string: "C#Cc1c(-c2cnc3ccccc3c2)c2c(N)ncnc2n1C12CCC(NC(=O)[C@@H]3CN(C)CCO3)(CC1)C2"
  pIC50: 9.29
- compound-string: "C#Cc1c(-c2cnc3ccccc3c2)c2c(N)ncnc2n1C12CCC(NC(=O)N3CCOCC3)(CC1)C2"
  pIC50: 9.27
- compound-string: "C#Cc1c(-c2cnc3ccccc3c2)c2c(N)ncnc2n1C12CCC(NC(=O)c3cccc[n+]3[O-])(CC1)C2"
  pIC50: 9.52

Hi team, please reply with pIC50 for each item in this list.
1. C#Cc1c(-c2cnc3ccccc3c2)c2c(N)ncnc2n1C12CCC(NC(=O)c3cnc(CNC)cn3)(CC1)C2
2. C#Cc1c(-c2cnc3ccccc3c2)c2c(N)ncnc2n1C12CCC(NC(=O)[C@@H]3CNCCO3)(CC1)C2

[9.52, 9.47]

---

Target: human EGFR (L858R/T790M/C797S) (Homo sapiens, UniProt P00533, C797S/L858R/T790M)
Construct: made in house; host or cells: Sf9 insect cells, baculovirus
Sequence (P00533 with tags, fused parts or gaps T790M/C797S/L858R): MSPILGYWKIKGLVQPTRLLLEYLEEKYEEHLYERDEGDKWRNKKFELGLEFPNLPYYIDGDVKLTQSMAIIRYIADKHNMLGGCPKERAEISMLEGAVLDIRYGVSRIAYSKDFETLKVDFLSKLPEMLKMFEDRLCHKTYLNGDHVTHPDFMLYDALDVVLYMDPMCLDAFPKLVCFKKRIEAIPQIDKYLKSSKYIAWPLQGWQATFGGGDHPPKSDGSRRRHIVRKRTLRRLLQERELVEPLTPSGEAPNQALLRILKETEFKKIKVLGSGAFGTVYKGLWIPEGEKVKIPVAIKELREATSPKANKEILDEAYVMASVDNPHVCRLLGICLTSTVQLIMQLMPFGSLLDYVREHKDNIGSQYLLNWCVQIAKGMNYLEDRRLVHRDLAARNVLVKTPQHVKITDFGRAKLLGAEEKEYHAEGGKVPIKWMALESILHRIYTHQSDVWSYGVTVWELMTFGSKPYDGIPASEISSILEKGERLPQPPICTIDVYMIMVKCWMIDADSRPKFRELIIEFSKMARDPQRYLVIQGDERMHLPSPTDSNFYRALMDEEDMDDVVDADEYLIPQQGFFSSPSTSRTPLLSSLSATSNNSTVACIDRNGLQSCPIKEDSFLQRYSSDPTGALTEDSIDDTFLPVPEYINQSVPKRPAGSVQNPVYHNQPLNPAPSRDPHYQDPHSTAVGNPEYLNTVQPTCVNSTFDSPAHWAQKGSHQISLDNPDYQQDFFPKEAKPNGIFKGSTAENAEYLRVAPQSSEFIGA
Assay: Inhibitory activity against EGFR (L858R/T790M/C797S) kinase
Type: biochemical
Conditions: Test Example 1, Table 3; ATP 0.5 μM
reported-property: IC50 (pM)
Give bare numbers, in pM.

These recorded examples may help you get a feel for the data.
- compound: "C#Cc1c(-c2cnc3ccccc3c2)c2c(N)ncnc2n1C12CCC(NC(=O)c3cnc(C)cn3)(CC1)C2"
  obs-value: 520
- compound: "C#Cc1c(-c2cnc3ccccc3c2)c2c(N)ncnc2n1C12CCC(NC(=O)C(F)F)(CC1)C2"
  obs-value: 470
- compound: "C#Cc1c(-c2cnc3ccccc3c2)c2c(N)ncnc2n1C12CCC(NC(=O)c3ccnn3-c3ccccc3)(CC1)C2"
  obs-value: 620
- compound: "C#Cc1c(-c2cnc3ccccc3c2)c2c(N)ncnc2n1C12CCC(NC(=O)c3ccnn3C)(CC1)CC2"
  obs-value: 700
- compound: "C#Cc1c(-c2cnc3ccccc3c2)c2c(N)ncnc2n1[C@@H]1CCN(C(=O)C=C)C1 [Comparative Example B, reference compound]"
  obs-value: 43000

Hi team, please reply with IC50 for each item in this list.
1. C#Cc1c(-c2cnc3ccccc3c2)c2c(N)ncnc2n1C12CCC(NC(=O)c3cccnn3)(CC1)C2
2. C#Cc1c(-c2cnc3ccccc3c2)c2c(N)ncnc2n1C12CCC(NC(=O)c3cnns3)(CC1)C2
3. C#Cc1c(-c2cnc3ccccc3c2)c2c(N)ncnc2n1C12CCC(NC(=O)c3ccnn3C3CC3)(CC1)C2
4. C#Cc1c(-c2cnc3ccccc3c2)c2c(N)ncnc2n1C12CCC(NC(C)=O)(CC1)C2
5. C#Cc1c(-c2cnc3ccccc3c2)c2c(N)ncnc2n1C12CCC(N(C)C)(CC1)C2
6. C#Cc1c(-c2cnc3ccccc3c2)c2c(N)ncnc2n1C12CCC(NC(=O)COC)(CC1)C2
7. C#Cc1c(-c2cnc3ccccc3c2)c2c(N)ncnc2n1C12CCC(NC(=O)c3cnnn3C)(CC1)C2
8. C#Cc1c(-c2cnc3ccccc3c2)c2c(N)ncnc2n1C12CCC(NC(=O)c3ccccc3)(CC1)C2

1: 470; 2: 420; 3: 440; 4: 360; 5: 690; 6: 1100; 7: 420; 8: 460
